# target_or_test_system: PAK4 kinase activity in whole cells (TR-293-KDG, modified HEK 293 overexpressing GEF-H1b and PAK4 KD) (Homo sapiens (Human))
# assay_info: PAK4 cellular assay: sandwich ELISA of PAK4-dependent phosphorylation of GEF-H1b in TR-293-KDG cells
# setup_conditions: doxycycline-induced, 3-hour exposure, phospho-GEF-H1b ELISA
pEC50: −log10 of the molar value.
test_readout: pEC50

Cc1nc(Nc2n[nH]c3c2CN(C(=O)N[C@H]2C[C@@H]2c2ccccc2)C3(C)C)c2sccc2n1 (relative stereo) [Example 41] = 6.83

a = Cc1nc(Nc2n[nH]c3c2CN(C(=O)N[C@@H]2C[C@H]2c2ccccc2)C3(C)C)c2ccccc2n1 (relative stereo) [Example 84]
b = CC1(C)c2[nH]nc(Nc3ncnc4ccsc34)c2CN1C(=O)N[C@@H]1C[C@H]1c1ccccc1 [Example 51]
Given the listed items, does a or b have the lesser reported pEC50? Indicate your choice by writing its label.
a

====

# target_or_test_system: PAK4 kinase domain (PAK4 KD) (Homo sapiens (Human), UniProt O96013)
# Sequence (O96013 321-572): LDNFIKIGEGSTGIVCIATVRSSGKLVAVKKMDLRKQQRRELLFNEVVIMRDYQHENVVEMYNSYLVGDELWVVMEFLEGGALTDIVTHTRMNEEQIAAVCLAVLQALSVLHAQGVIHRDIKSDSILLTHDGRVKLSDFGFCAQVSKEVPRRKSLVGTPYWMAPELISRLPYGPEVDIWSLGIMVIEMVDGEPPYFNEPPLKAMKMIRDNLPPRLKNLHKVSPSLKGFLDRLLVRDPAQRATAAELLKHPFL
# assay_info: PAK4 kinase domain enzymatic assay (coupled PK/LDH, NADH absorbance at 340 nm)
# Type: biochemical
# setup_conditions: PAK4 kinase domain, 25 nM PAK4 KD, 0.04 mM ATP, pH 7.5
test_readout: Ki (µM)

COc1nc(Nc2n[nH]c3c2CN(C(=O)N[C@@H]2C[C@H]2c2ccccc2)C3(C)C)nc(N2CCCC2)n1 (relative stereo) = 0.19

1 = COc1nc(Cl)nc(Nc2n[nH]c3c2CN(C(=O)N[C@@H]2C[C@H]2c2ccccc2)C3(C)C)n1 (relative stereo)
2 = Cc1nccc(Nc2n[nH]c3c2CN(C(=O)N[C@H](CN(C)C)c2ccccc2)C3(C)C)n1
3 = CC1(C)c2[nH]nc(Nc3nc(C(F)(F)F)nc4ccsc34)c2CN1C(=O)N[C@@H]1C[C@H]1c1ccccc1 (relative stereo)
4 = CC1(C)c2[nH]nc(Nc3ncnc4ccsc34)c2CN1C(=O)N[C@H]1C[C@@H]1c1ccccc1 (relative stereo)
Ordering criterion: Ki; begin with the maximum. Lab note: record answer as labels in requested order.
2, 1, 4, 3
(2: 0.68 µM, 1: 0.12 µM, 4: 0.041 µM, 3: 0.025 µM)

P = Cc1nc(Nc2n[nH]c3c2CN(C(=O)N[C@@H]2C[C@H]2c2ccccc2)C3(C)C)c2ccccc2n1 (relative stereo)
Q = COc1nc(Nc2n[nH]c3c2CN(C(=O)NC2CC2c2ccccc2)C3(C)C)nc(N2CCC[C@H]2C(N)=O)n1 (stereo partly shown)
Between P and Q , whose measured Ki reads higher? Indicate your choice by writing its label.
Q
(Q: 0.24 µM, P: 0.034 µM)

a = Cc1cc2c(Nc3n[nH]c4c3CN(C(=O)N[C@@H]3C[C@H]3c3ccccc3)C4(C)C)ncnc2s1 (relative stereo)
b = COc1ncc(F)c(Nc2n[nH]c3c2CN(C(=O)O[C@H](CN(C)C)c2ccccc2)C3(C)C)n1
Given the listed items, does a or b have the lesser reported Ki? Indicate your choice by writing its label.
b
(b: 0.039 µM, a: 0.26 µM)

====

# target_or_test_system: PAK4 kinase activity in whole cells (TR-293-KDG, modified HEK 293 overexpressing GEF-H1b and PAK4 KD) (Homo sapiens (Human), UniProt O96013)
# Sequence (O96013 321-572): as above
# assay_info: PAK4 cellular assay: sandwich ELISA of PAK4-dependent phosphorylation of GEF-H1b in TR-293-KDG cells
# Format: cell-based
# setup_conditions: doxycycline-induced, 3-hour exposure, phospho-GEF-H1b ELISA
pEC50: −log10 of the molar value.
test_readout: pEC50

Worked examples follow.
COc1nc(Cl)nc(Nc2n[nH]c3c2CN(C(=O)N[C@@H]2C[C@H]2c2ccccc2)C3(C)C)n1 (relative stereo) = < 5.40
CN(C)C[C@@H](OC(=O)N1Cc2c(Nc3nc(C#N)nc4ccccc34)n[nH]c2C1(C)C)c1ccccc1 = > 8.41
Cn1cnc2c(Nc3n[nH]c4c3CN(C(=O)N[C@@H]3C[C@H]3c3ccccc3)C4(C)C)ncnc21 (relative stereo) = < 5.40
CN(C)C[C@@H](NC(=O)N1Cc2c(Nc3ccnc(C(F)(F)F)n3)n[nH]c2C1(C)C)c1ccccc1 = < 5.40
Cc1nccc(Nc2n[nH]c3c2CN(C(=O)N[C@@H]2C[C@H]2c2ccccc2)C3(C)C)n1 (relative stereo) = < 5.40
CC1(C)c2[nH]nc(Nc3ncnc4ccsc34)c2CN1C(=O)N[C@H]1C[C@@H]1c1ccccc1 (relative stereo) = < 5.70

What does the data say about its pEC50? Entry: CC1(C)c2[nH]nc(Nc3nc(Cl)nc(Cl)n3)c2CN1C(=O)N[C@@H]1C[C@H]1c1ccccc1 (relative stereo)
< 5.40

====

# target_or_test_system: PAK4 kinase activity in whole cells (TR-293-KDG, modified HEK 293 overexpressing GEF-H1b and PAK4 KD) (Homo sapiens (Human), UniProt O96013)
# assay_info: PAK4 cellular assay: sandwich ELISA of PAK4-dependent phosphorylation of GEF-H1b in TR-293-KDG cells
# setup_conditions: doxycycline-induced, 3-hour exposure, phospho-GEF-H1b ELISA
pEC50: −log10 of the molar value.
We begin with a simple list: items and their reported pEC50.

CN(C)C[C@@H](NC(=O)N1Cc2c(Nc3nc(C#N)nc4ccccc34)n[nH]c2C1(C)C)c1ccccc1 = > 8.41

What does the data say about its pEC50? Entry: CCCOc1nc(Cl)nc(Nc2n[nH]c3c2CN(C(=O)N[C@@H]2C[C@H]2c2ccccc2)C3(C)C)n1 (relative stereo)
< 5.40

Follow-up item: CN(C)c1nc(Nc2n[nH]c3c2CN(C(=O)NC2C[C@@H]2c2ccccc2)C3(C)C)nc(N2CCC[C@H]2CO)n1 (some centres unmarked)
< 5.40

Follow-up item: COc1ncc(F)c(Nc2n[nH]c3c2CN(C(=O)N[C@H](CN(C)C)c2ccccc2)C3(C)C)n1
> 8.41

Follow-up item: COc1ncc(F)c(Nc2n[nH]c3c2CN(C(=O)N[C@@H]2C[C@H]2c2ccccc2)C3(C)C)n1 (relative stereo)
< 5.40

Follow-up item: CN(C)C[C@@H](OC(=O)N1Cc2c(Nc3ncnc4c3ncn4C)n[nH]c2C1(C)C)c1ccccc1
< 5.40

Follow-up item: COc1ncc(F)c(Nc2n[nH]c3c2CN(C(=O)O[C@H](CN(C)C)c2ccccc2)C3(C)C)n1
> 8.41

Follow-up item: CN(C)C[C@@H](OC(=O)N1Cc2c(Nc3ncnc4sccc34)n[nH]c2C1(C)C)c1ccccc1
> 8.41

====

# target_or_test_system: PAK4 kinase domain (PAK4 KD) (Homo sapiens (Human))
# assay_info: PAK4 kinase domain enzymatic assay (coupled PK/LDH, NADH absorbance at 340 nm)
# Format: biochemical
# setup_conditions: PAK4 kinase domain, 25 nM PAK4 KD, 0.04 mM ATP, pH 7.5
test_readout: Ki (nM)

COc1nc(Nc2n[nH]c3c2CN(C(=O)NC2C[C@@H]2c2ccccc2)C3(C)C)nc(N2CCC[C@H]2CO)n1 (stereo partly drawn) = 76

1 = CSc1nc(Nc2n[nH]c3c2CN(C(=O)N[C@@H]2C[C@H]2c2ccccc2)C3(C)C)cc(C(F)(F)F)n1 (relative stereo)
2 = CCOc1ncc(F)c(Nc2n[nH]c3c2CN(C(=O)N[C@H](CN(C)C)c2ccccc2)C3(C)C)n1
3 = Cc1ncnc(Nc2n[nH]c3c2CN(C(=O)O[C@H](CN(C)C)c2ccccc2)C3(C)C)c1F
4 = CC1(C)c2[nH]nc(Nc3ccnc(C#N)n3)c2CN1C(=O)N[C@@H]1C[C@H]1c1ccccc1 (relative stereo)
Ordering criterion: Ki; begin with the maximum. Lab note: record answer as labels in requested order.
1, 2, 3, 4
(1: 960 nM, 2: 170 nM, 3: 93 nM, 4: 47 nM)

P = Cc1ncnc(Nc2n[nH]c3c2CN(C(=O)N2C[C@@H]4CCCN4C[C@@H]2C)C3(C)C)c1F
Q = Cc1nc(Nc2n[nH]c3c2CN(C(=O)O[C@H](CN(C)C)c2ccccc2)C3(C)C)c2ccsc2n1
Given the listed items, does P or Q have the lesser reported Ki? Indicate your choice by writing its label.
Q

a = CNC(=O)[C@@H]1CCCN1c1nc(Nc2n[nH]c3c2CN(C(=O)NC2CC2c2ccccc2)C3(C)C)nc(OC)n1 (stereo partly drawn)
b = CC1(C)c2[nH]nc(Nc3ncnc4ccsc34)c2CN1C(=O)N[C@@H]1C[C@H]1c1ccccc1
Between a and b , whose measured Ki reads higher? Indicate your choice by writing its label.
a

A = CC1(C)c2[nH]nc(Nc3cc(C#N)ccn3)c2CN1C(=O)N[C@H]1C[C@@H]1c1ccccc1 (relative stereo)
B = CN(C)C[C@@H](NC(=O)N1Cc2c(Nc3ccnc(C#N)n3)n[nH]c2C1(C)C)c1ccccc1
Between A and B , whose measured Ki reads higher? Indicate your choice by writing its label.
A
(A: 660 nM, B: 40 nM)

A = CC1(C)c2[nH]nc(Nc3cccc(C(F)(F)F)n3)c2CN1C(=O)N[C@H]1C[C@@H]1c1ccccc1 (relative stereo)
B = CC1(C)c2[nH]nc(Nc3nc(C4CC4)nc4ccccc34)c2CN1C(=O)N[C@@H]1C[C@H]1c1ccccc1 (relative stereo)
Given the listed items, does A or B have the lesser reported Ki? Indicate your choice by writing its label.
B

1 = Cc1cc2c(Nc3n[nH]c4c3CN(C(=O)N[C@H](CN(C)C)c3ccccc3)C4(C)C)ncnc2s1
2 = CC1(C)c2[nH]nc(Nc3nc(N)nc(Cl)n3)c2CN1C(=O)N[C@@H]1C[C@H]1c1ccccc1 (relative stereo)
Between 1 and 2 , whose measured Ki reads higher? Indicate your choice by writing its label.
2

a = CN(C)C[C@@H](NC(=O)N1Cc2c(Nc3ncnc4ccsc34)n[nH]c2C1(C)C)c1ccccc1
b = COc1ncc(F)c(Nc2n[nH]c3c2CN(C(=O)N[C@@H]2C[C@H]2c2ccccc2)C3(C)C)n1 (relative stereo)
c = CC1(C)c2[nH]nc(Nc3ncnc4sccc34)c2CN1C(=O)N[C@@H]1C[C@H]1c1ccccc1 [Example 50]
d = CC1(C)c2[nH]nc(Nc3ccnc(C(F)(F)F)n3)c2CN1C(=O)N[C@H]1C[C@@H]1c1ccccc1 (relative stereo)
e = CCc1cc(Nc2n[nH]c3c2CN(C(=O)N[C@H](CN(C)C)c2ccccc2)C3(C)C)ncn1
Task for the reader: rank each entry by its Ki, from the minimum upward. Lab note: record answer as labels in requested order.
c, d, e, a, b
(c: 16 nM, d: 80 nM, e: 140 nM, a: 220 nM, b: 450 nM)

A = COc1nc(Nc2n[nH]c3c2CN(C(=O)N[C@H]2C[C@@H]2c2ccccc2)C3(C)C)nc(OC)n1 (relative stereo)
B = CC1(C)c2[nH]nc(Nc3ncnc4ccccc34)c2CN1C(=O)N[C@@H]1C[C@H]1c1ccccc1 (relative stereo)
Given the listed items, does A or B have the lesser reported Ki? Indicate your choice by writing its label.
B
(B: 100 nM, A: 270 nM)
